Data provenance: ChEMBL document CHEMBL1806431

Item-by-item account of CC50 at 48 h
- protocolSummary: Cytotoxicity against human MAGI-CCR5 cells after 48 hrs by MTS cell viability assay

sampleSmiles	property	result
Cc1ccc2nc(-c3ccccc3Cl)c(NC3CCCCC3)n2c1	CC50 at 48 h	57.4 µM

Please supply the value of reported CC50 at 48 h for the item `Cc1c(Br)ccc2nc(-c3ccccc3Cl)c(NC3CCCCC3)n12`
> 200 µM

Quick one: give measured CC50 at 48 h for `Clc1ccccc1-c1nc2cccc(Br)n2c1NC1CCCCC1`
> 200 µM

Assign CC50 at 48 h to the following record: `N#Cc1cccc2nc(-c3ccccc3Cl)c(NC3CCCCC3)n12`
156 µM

Look up and state reported CC50 at 48 h for `Cc1ccnc2c1NC(=O)c1cccnc1N2C1CC1`
> 10 µM

Report CC50 at 48 h, nothing else, for this molecule: `Clc1ccc2nc(-c3ccccc3Cl)c(NC3CCCCC3)n2c1`
> 200 µM

----------
- testTarget: Human immunodeficiency virus type 1 reverse transcriptase (Human immunodeficiency virus 1, UniProt Q72547)
pIC50: −log10 of the molar value.
property: pIC50

[I] N#Cc1ccc2nc(-c3ccccc3Cl)c(NC3CCCCC3)n2c1
[II] Clc1ccc2nc(-c3ccccc3Cl)c(NC3CCCCC3)n2c1
[III] Clc1ccccc1-c1nc2cccc(Cl)n2c1NC1CCCCC1
[IV] Cc1cccc2nc(-c3ccccc3Cl)c(NC3CCCCC3)n12
Sort (4 compounds) by pIC50: min first. List the labels according to the requested ordering.
II, I, III, IV

----------
Each record here notes measured CC50 at 48 h.
- protocolSummary: Cytotoxicity against human MAGI-CCR5 cells after 48 hrs by MTS cell viability assay
Your answer should be a plain number; it is taken to be in µM.

sampleSmiles	property	scaleUnit	readoutNumber
Clc1ccccc1-c1nc2ccc3ccccc3n2c1NC1CCCCC1	CC50 at 48 h	µM	146
N#Cc1ccc2nc(-c3ccccc3Cl)c(NC3CCCCC3)n2c1	CC50 at 48 h	µM	140
Fc1ccc2nc(-c3ccccc3Cl)c(NC3CCCCC3)n2c1	CC50 at 48 h	µM	160
Cc1cccc2nc(-c3ccccc3Cl)c(NC3CCCCC3)n12	CC50 at 48 h	µM	20.5
Clc1ccccc1-c1nc2ccccn2c1NC1CCCCC1	CC50 at 48 h	µM	60.4

Please turn your attention to the following entry.
Provide one value: measured CC50 at 48 h of `Clc1ccccc1-c1nc2cccc(Cl)n2c1NC1CCCCC1`
152

----------
UniProt:Q72547 IC50 data
property: IC50 (µM)

sampleSmiles	IC50 (µM)
N#Cc1cccc2nc(-c3ccccc3Cl)c(NC3CCCCC3)n12	3.47

[a] Cc1ccc2nc(-c3ccccc3Cl)c(NC3CCCCC3)n2c1
[b] Fc1ccc2nc(-c3ccccc3Cl)c(NC3CCCCC3)n2c1
Please let me know which one, a or b , has a lower measured IC50 value. Identify your pick by its label.
a
(a: 5.39 µM, b: 11.3 µM)

----------
- testTarget: Human immunodeficiency virus type 1 reverse transcriptase (Human immunodeficiency virus 1, UniProt Q72547)
property: IC50 (µM)

Examples with answers:
sampleSmiles	scaleUnit	IC50
Cc1c(Br)ccc2nc(-c3ccccc3Cl)c(NC3CCCCC3)n12	µM	18.9
Clc1ccccc1-c1nc2cccc(Br)n2c1NC1CCCCC1	µM	4.62
Clc1ccccc1-c1nc2ccccn2c1NC1CCCCC1	µM	4.4

[P] Clc1ccccc1-c1nc2ccc3ccccc3n2c1NC1CCCCC1
[Q] Clc1ccccc1-c1nc2ccc(Br)cn2c1NC1CCCCC1
# return whichever of P and Q has the smaller IC50 Choose, then provide that item's label.
P
(P: 7.52 µM, Q: 12.2 µM)
